Each record here notes measured cell viability.
Test system: OCI-AML2
assayProtocol: cell viability relative to vehicle control; higher = less cytotoxic;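 further: after 48 h exposure read by CellTiter-Glo luminescence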
conditionLabel: 10 µM; SRSF2 genotype: wt/wt
Where a name gives a salt, the structure may show the parent alone.

compound	resultUnit	cell viability
COC(=O)c1cc(OC)c(OC)c(OC)c1 [Methyl EudesMate]	%	110
C=CCc1cccc(/C=N/NC(=O)CN2CCN(Cc3ccccc3)CC2)c1O	%	19.7
Cc1cc(O)c(C(=O)N[C@@H](C(=O)N[C@@H]2C(=O)N3C(C(=O)O)=C(CSc4nnnn4C)CS[C@H]23)c2ccc(O)cc2)cn1 [Cefpiramide sodium]	%	99.8
COC(=O)N[C@H](C(=O)N[C@@H](Cc1ccccc1)[C@@H](O)CN(Cc1ccc(-c2ccccn2)cc1)NC(=O)[C@@H](NC(=O)OC)C(C)(C)C)C(C)(C)C [Atazanavir sulfate]	%	97.3
CCN(CC)CC(O)CNc1ccc(NCC2CO2)c2c1C(=O)c1ccccc1C2=O (configuration not stated)	%	0.95
Cn1nc(C(C)(C)C)cc1C(=O)N[C@@H](Cc1cccc(Cl)c1)C(=O)NCC#N [Cathepsin Inhibitor 1]	%	95.9
CC(C)=CCCC(C)(OC1OC(COC2OCC(O)C(O)C2O)C(O)C(O)C1O)C1CCC2(C)C1C(O)CC1C3(C)CCC(OC4OC(CO)C(O)C(O)C4O)C(C)(C)C3CCC12C (configuration not stated) [Gynostemma Extract]	%	98
C=CC(=O)N1CC[C@@H](Oc2nc(Nc3ccc(N4CCC(N5CCN(C)CC5)CC4)cc3)c(C(N)=O)nc2CC)C1 [ASP8273 (Naquotinib)]	%	24.4
COc1ccc(NS(=O)(=O)c2sc3ccc(Cl)cc3c2C)cc1N1CCNCC1	%	78
Cc1nc(Nc2ncc(C(=O)Nc3c(C)cccc3Cl)s2)cc(N2CCN(CCO)CC2)n1 [Dasatinib]	%	40.6
CC(=O)N1CCN(CCOc2ccc(C3CCN(C4=Nn5c(nnc5C(F)(F)F)CC4)CC3)cc2)CC1	%	59.7
CC(C)(c1ccc(OCC(O)CO)cc1)c1ccc(OCC(O)CCl)cc1 (configuration not stated)	%	86.5
Cc1nc(NC(=O)N2CCC[C@H]2C(N)=O)sc1-c1csc(C(C)(C)C)n1	%	61.9
CCCC(=O)O[C@]1(C(=O)COC(C)=O)CC[C@H]2[C@@H]3C[C@H](F)C4=CC(=O)C=C[C@]4(C)[C@@]3(F)[C@@H](O)C[C@@]21C [Difluprednate]	%	107
CNCCc1ccccn1 [Betahistine]	%	105
Nc1cc(F)ccc1NC(=O)/C=C/c1cnn(C/C=C/c2ccccc2)c1	%	87.4
O=C(O)CNC(=O)c1nc(Cl)c2ccccc2c1O	%	89.8

###

System: MOLM14
assayProtocol: cell viability relative to vehicle control; higher = less cytotoxic
conditionLabel: 10 µM; SRSF2 genotype: SRSF2 P95H/wt
Structures can show the parent of a compound that is named as a salt.

compound	assayedTarget	cell viability
CC1=CCC[C@H](C)C(=O)C[C@@H](C(C)C)C(=O)C1 [Curdione]	MOLM14	91.2%
COc1cc2c(=O)c(-c3ccc(O)cc3)coc2cc1O[C@@H]1O[C@H](CO)[C@@H](O)[C@H](O)[C@H]1O [Glycitin]	MOLM14	97.1%
C=C[C@H]1CN2CC[C@H]1C[C@H]2[C@H](O)c1ccnc2ccc(OC)cc12 [Quinine hydrochloride dihydrate]	MOLM14	79.7%
C[C@H]1O[C@@H](n2cc(F)c(=O)[nH]c2=O)[C@H](O)[C@@H]1O [Doxifluridine]	MOLM14	96.5%
Cc1cc(C)c(-c2csc(NC(=O)c3ccccc3)n2)c(C)c1	MOLM14	45%
C=CCn1c(=O)c2cnc(Nc3ccc(N4CCN(C)CC4)cc3)nc2n1-c1cccc(C(C)(C)O)n1	MOLM14	11.6%
COc1cc2nccc(Oc3ccc(NC(=O)c4cn(C(C)C)c(=O)n(-c5ccc(F)cc5)c4=O)cc3F)c2cc1OC	MOLM14	27.7%
FC(F)(F)Oc1ccc2nc(-c3ccc(OCCOCCOc4ccc(-c5nc6ccc(OC(F)(F)F)cc6[nH]5)nc4)cn3)[nH]c2c1	MOLM14	50.4%
C=CC[S+]([O-])C[C@H](N)C(=O)O (stereo partly specified) [Alliin]	MOLM14	114%
Nc1nc(NCCc2ccc(O)cc2)nc2nc(-c3ccco3)nn12	MOLM14	94.4%
OCc1ccc(O[C@@H]2O[C@H](CO)[C@@H](O)[C@H](O)[C@H]2O)cc1 [Gastrodin (Gastrodine)]	MOLM14	105%
CCOC(=O)c1cc2ccccc2oc1=O [Ethyl Coumarin-3-carboxylate]	MOLM14	88.7%
CNCCCC12CCC(c3ccccc31)c1ccccc12 [Maprotiline hydrochloride]	MOLM14	64.4%
CN1CCC(=C2c3ccccc3CCn3c(C=O)cnc32)CC1 [Alcaftadine]	MOLM14	99.7%
O=C1OC(C(O)CO)C([O-])=C1O.[Na+] (stereo unspecified) [Sodium erythorbate]	MOLM14	102%
O=C1Cc2cc(CCN3CCN(c4nsc5ccccc45)CC3)c(Cl)cc2N1 [Ziprasidone hydrochloride]	MOLM14	37.8%
O=c1oc2cc(O)ccc2s1 [Tioxolone]	MOLM14	101%
O=C(O)[C@H]1CSC(c2nc3ccc(O)cc3s2)=N1 [D-Luciferin]	MOLM14	85.8%
Nc1ccc(S(N)(=O)=O)cc1 [Sulfanilamide]	MOLM14	96.2%
Cc1ccc(C(C)C)c(O)c1 [Thymol]	MOLM14	97.1%
COc1ccc(S(=O)(=O)Nc2nc(-c3cccc([N+](=O)[O-])c3)cs2)cc1OC	MOLM14	93.3%
O=C1C[C@@H](c2ccc(O[C@@H]3O[C@H](CO)[C@@H](O)[C@H](O)[C@H]3O)cc2)Oc2cc(O)ccc21 [Liquiritin]	MOLM14	86.4%
CCNC(=O)c1noc(-c2cc(Cl)c(O)cc2O)c1-c1ccc(OC)cc1	MOLM14	2.02%
COc1ccc(S(=O)(=O)Nc2cc(-c3c(O)ccc4ccccc34)c(O)c3ccccc23)cc1	MOLM14	0.32%
C/C=C(/C)C(=O)O[C@H]1Cc2cc3ccc(=O)oc3cc2OC1(C)C [Decursinol angelate]	MOLM14	83.1%
O=C(COc1ccc(C(=O)c2ccccc2)cc1)NC1CCN(Cc2ccccc2)CC1 [Adiporon]	MOLM14	65.2%
CCOc1ccccc1OCCN[C@H](C)Cc1ccc(OC)c(S(N)(=O)=O)c1 [Tamsulosin]	MOLM14	97.5%
O=C(NCCCn1ccnc1)c1cc(-c2ccco2)on1	MOLM14	45.7%
Cc1cc(C)nc(NS(=O)(=O)c2ccc(NC(=S)NC(=O)COc3ccc(Br)cc3Cl)cc2)n1	MOLM14	83.5%
COc1ccc(-n2c(C)c([N+](=O)[O-])c3ccc(O)cc32)cc1	MOLM14	93.6%
CC(=O)Oc1cc2c(s1)CCN(C(C(=O)C1CC1)c1ccccc1F)C2 (stereo unspecified) [Prasugrel (Effient)]	MOLM14	23.1%
CCCCC[C@](C)(O)/C=C/[C@@H]1[C@@H](C/C=C\CCCC(=O)O)[C@@H](O)C[C@H]1O [Carboprost]	MOLM14	78.8%
CC(C)N(CCCNC(=O)Nc1ccc(C(C)(C)C)cc1)C[C@H]1O[C@@H](n2ccc3c(N)ncnc32)[C@H](O)[C@@H]1O	MOLM14	95.5%
CCCCCC(O)C=CC1C(O)CC(=O)C1CCCCCCC(=O)O (stereo unspecified) [Alprostadil(Caverject)]	MOLM14	50.1%
Cc1[nH]nc2ccc(-c3cncc(OC[C@@H](N)Cc4ccccc4)c3)cc12	MOLM14	0.2%
CN1CCN(c2c(F)cc3c(=O)c(C(=O)O)cn4c3c2OCN4C)CC1 [Marbofloxacin]	MOLM14	103%
